These measurements were taken from ChEMBL document CHEMBL1149384.

Parameter: IC50. Scope: all listed entries.
target: UniProt:P35372; test: Displacement of [3H]diprenorphin from cloned human mu opioid receptor expressed in CHO cells
Sequence (P35372 whole entry): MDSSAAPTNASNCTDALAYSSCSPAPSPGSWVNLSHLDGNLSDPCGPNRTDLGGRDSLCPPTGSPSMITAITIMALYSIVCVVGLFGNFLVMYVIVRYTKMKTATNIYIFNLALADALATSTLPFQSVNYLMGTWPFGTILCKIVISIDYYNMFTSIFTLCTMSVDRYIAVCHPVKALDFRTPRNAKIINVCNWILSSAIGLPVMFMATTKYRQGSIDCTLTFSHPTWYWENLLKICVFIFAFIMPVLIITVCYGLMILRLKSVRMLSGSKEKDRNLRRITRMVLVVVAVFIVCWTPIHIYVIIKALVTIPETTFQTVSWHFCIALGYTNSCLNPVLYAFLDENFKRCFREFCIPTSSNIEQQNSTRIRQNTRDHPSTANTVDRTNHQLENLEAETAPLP
RESULT_TYPE: IC50

INSERT INTO measurements (compound_smiles, assayed_target, data_value) VALUES
  ('O=C(NCCCN1CCC2(CCc3ccccc32)CC1)c1ccccc1Oc1ccccc1', 'UniProt:P35372', '> 10 µM'),
  ('O=C(NCCCN1CCC2(CCc3ccccc32)CC1)[C@@H]1CCCN1Cc1ccccc1', 'UniProt:P35372', '> 10 µM'),
  ('O=C(NCCCN1CCC2(CCc3ccccc32)CC1)[C@@H](O)Cc1ccccc1', 'UniProt:P35372', '> 10 µM'),
  ('O=C(NCCCN1CCC2(CC1)OCc1ccccc12)[C@H]1CCCN1Cc1ccccc1', 'UniProt:P35372', '6.7 µM'),
  ('O=C(NCCCN1CCC2(CCc3ccccc32)CC1)c1ccccc1-c1ccccc1', 'UniProt:P35372', '> 10 µM'),
  ('O=C(NCCCN1CCC2(CCc3ccccc32)CC1)c1ccccc1OCc1ccccc1', 'UniProt:P35372', '> 10 µM'),
  ('O=C(NCCCN1CCC2(CCc3ccccc32)CC1)[C@H]1CCCN1Cc1ccccc1', 'UniProt:P35372', '4.3 µM');

* * *

Parameter: IC50. Scope: all listed entries.
biological target: Nociceptin receptor (Homo sapiens); assay: Displacement of [125I]Tyr-nociceptin from cloned human ORL1 expressed in CHO cells; assay type: cell-based
RESULT_TYPE: IC50

INSERT INTO assay_data (compound, result_type, data_value) VALUES
  ('O=C(NCCCN1CCC2(CCc3ccccc32)CC1)C(Cc1ccccc1)c1ccccc1 (configuration not stated)', 'IC50', '> 1000 nM'),
  ('O=C(Cc1ccc2ccccc2c1)NCCCN1CCC2(CCc3ccccc32)CC1', 'IC50', '> 1000 nM'),
  ('COC(C(=O)NCCCN1CCC2(CCc3ccccc32)CC1)c1ccccc1 (configuration not stated)', 'IC50', '> 1000 nM'),
  ('O=C(NCCCN1CCC2(CCc3ccccc32)CC1)c1ccccc1-c1ccccc1', 'IC50', '10 nM'),
  ('O=C(NCCCN1CCC2(CCc3ccccc32)CC1)c1ccccc1Oc1ccccc1', 'IC50', '8.2 nM'),
  ('O=C(N[C@H]1CCCC[C@@H]1C(=O)NCCCN1CCC2(CCc3ccccc32)CC1)c1ccccc1', 'IC50', '> 1000 nM'),
  ('O=C(NCCCN1CCC2(CCc3ccccc32)CC1)c1ccccc1Nc1ccccc1', 'IC50', '230 nM'),
  ('O=C(NCCCN1CCC2(CCc3ccccc32)CC1)c1ccccc1Cc1ccccc1', 'IC50', '21 nM'),
  ('CC(NC(=O)c1ccccc1)C(=O)NCCCN1CCC2(CCc3ccccc32)CC1 (configuration not stated)', 'IC50', '> 1000 nM'),
  ('O=C(NCCCN1CCC2(CCc3ccccc32)CC1)C1Cc2ccccc2C1', 'IC50', '> 1000 nM'),
  ('CC(Oc1ccccc1)C(=O)NCCCN1CCC2(CCc3ccccc32)CC1 (configuration not stated)', 'IC50', '900 nM'),
  ('O=C(NCCCN1CCC2(CCc3ccccc32)CC1)c1ccccc1C(O)c1ccccc1 (configuration not stated)', 'IC50', '580 nM'),
  ('CC(C)(C)OC(=O)NC1(C(=O)NCCCN2CCC3(CCc4ccccc43)CC2)CCCCC1', 'IC50', '> 1000 nM'),
  ('O=C(NCCCN1CCC2(CCc3ccccc32)CC1)[C@H]1CCCN1Cc1ccccc1', 'IC50', '0.22 nM'),
  ('O=C(NCCCN1CCC2(CCc3ccccc32)CC1)c1ccc(-c2ccc(Cl)cc2)o1', 'IC50', '> 1000 nM'),
  ('O=C(NCCCN1CCC2(CCc3ccccc32)CC1)C1CCN(c2ncccn2)CC1', 'IC50', '> 1000 nM'),
  ('CC(=O)N/C(=C\c1ccccc1)C(=O)NCCCN1CCC2(CCc3ccccc32)CC1', 'IC50', '> 1000 nM'),
  ('COc1ccccc1/C=C\C(=O)NCCCN1CCC2(CCc3ccccc32)CC1', 'IC50', '> 1000 nM'),
  ('CN(CC(=O)NCCCN1CCC2(CCc3ccccc32)CC1)C(=O)c1ccccc1', 'IC50', '> 1000 nM'),
  ('O=C(/C=C/c1c[nH]c2ccccc12)NCCCN1CCC2(CCc3ccccc32)CC1', 'IC50', '> 1000 nM'),
  ('O=C(NCCCN1CCC2(CCc3ccccc32)CC1)[C@H]1COCN1C(=O)OCc1ccccc1', 'IC50', '131 nM'),
  ('Cc1ccc(C(=O)/C=C/C(=O)NCCCN2CCC3(CCc4ccccc43)CC2)cc1', 'IC50', '> 1000 nM');

* * *

Parameter: IC50. Scope: all listed entries.
molecular target: Nociceptin receptor (Homo sapiens, UniProt P41146); assay: Displacement of [125I]Tyr-nociceptin from cloned human ORL1 expressed in CHO cells; type: cell-based
Sequence (P41146 whole entry): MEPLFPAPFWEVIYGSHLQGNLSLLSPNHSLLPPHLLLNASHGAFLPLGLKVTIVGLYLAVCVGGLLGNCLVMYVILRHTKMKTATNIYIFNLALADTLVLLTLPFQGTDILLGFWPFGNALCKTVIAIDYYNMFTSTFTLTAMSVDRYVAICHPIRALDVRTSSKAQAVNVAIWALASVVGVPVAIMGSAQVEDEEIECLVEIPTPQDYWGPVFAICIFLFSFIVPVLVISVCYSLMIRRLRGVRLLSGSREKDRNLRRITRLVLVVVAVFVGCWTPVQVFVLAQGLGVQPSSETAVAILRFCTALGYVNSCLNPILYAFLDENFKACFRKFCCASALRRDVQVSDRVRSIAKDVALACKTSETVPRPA
RESULT_TYPE: IC50 (nM)

INSERT INTO measurements (compound, result_type, value_prefix, data_value) VALUES
  ('O=C(NCCCN1CCC2(CCc3ccccc32)CC1)C(=O)c1cnn(-c2ccccc2)c1C(F)(F)F', 'IC50', '>', 1000),
  ('O=C(NCCCN1CCC2(CCc3ccccc32)CC1)c1ccccc1OCc1ccccc1', 'IC50', '=', 83),
  ('O=C(CCc1c[nH]c2ccccc12)NCCCN1CCC2(CCc3ccccc32)CC1', 'IC50', '=', 360),
  ('O=C(NCCCN1CCC2(CCc3ccccc32)CC1)C(O)(c1ccccc1)C1CCCCC1 (stereo not given)', 'IC50', '>', 1000),
  ('O=C(NCCCN1CCC2(CCc3ccccc32)CC1)C1Cc2ccccc2N1c1ccccc1 (stereo not given)', 'IC50', '>', 1000);

* * *

Parameter: pIC50. Scope: all listed entries.
molecular target: Nociceptin receptor (Homo sapiens, UniProt P41146); test: Displacement of [125I]Tyr-nociceptin from cloned human ORL1 expressed in CHO cells; assay type: cell-based
pIC50: −log10 of the molar value.
RESULT_TYPE: pIC50

INSERT INTO measurements (compound, result_type, value_prefix, data_value) VALUES
  ('O=C(NCCCN1CCC2(CC1)OCc1ccccc12)[C@H]1CCCN1Cc1ccccc1', 'pIC50', '=', 9.57),
  ('O=C(Cc1ccccc1)NCCCN1CCC2(CCc3ccccc32)CC1', 'pIC50', '<', 6.00),
  ('CC(C)(Oc1ccc(Cl)cc1)C(=O)NCCCN1CCC2(CCc3ccccc32)CC1', 'pIC50', '=', 6.06),
  ('O=C(Cc1cccc(Oc2ccccc2)c1)NCCCN1CCC2(CCc3ccccc32)CC1', 'pIC50', '=', 6.47),
  ('O=C(NCCCN1CCC2(CCc3ccccc32)CC1)[C@H]1COC(=O)N1Cc1ccccc1', 'pIC50', '=', 7.62),
  ('O=C(CSc1nc2ccccc2s1)NCCCN1CCC2(CCc3ccccc32)CC1', 'pIC50', '=', 6.54),
  ('O=C(CCc1ccccc1)NCCCN1CCC2(CCc3ccccc32)CC1', 'pIC50', '=', 6.14),
  ('O=C(NCCCN1CCC2(CCc3ccccc32)CC1)C1CCc2ccccc2C1 (stereo not given)', 'pIC50', '<', 6.00),
  ('O=C(NCCCN1CCC2(CCc3ccccc32)CC1)[C@@H]1CCCN1C(=O)c1ccccc1', 'pIC50', '<', 6.00),
  ('O=C(NCCCN1CCC2(CCc3ccccc32)CC1)[C@@H](O)Cc1ccccc1', 'pIC50', '=', 7.92);

* * *

target: Nociceptin receptor (Homo sapiens, UniProt P41146); experiment: Displacement of [125I]Tyr-nociceptin from cloned human ORL1 expressed in CHO cells; assay type: cell-based
pIC50: −log10 of the molar value.
RESULT_TYPE: pIC50

INSERT INTO assay_data (compound, assayed_target, value_prefix, data_value) VALUES
  ('O=C(CCCc1ccccc1)NCCCN1CCC2(CCc3ccccc32)CC1', 'Nociceptin receptor (Homo sapiens, UniProt P41146)', '=', 6.46),
  ('O=C(CSc1ccccc1)NCCCN1CCC2(CCc3ccccc32)CC1', 'Nociceptin receptor (Homo sapiens, UniProt P41146)', '=', 6.77),
  ('O=C(NCCCN1CCC2(CCc3ccccc32)CC1)c1ncccc1Oc1ccccc1', 'Nociceptin receptor (Homo sapiens, UniProt P41146)', '<', 6.00),
  ('CC1=Cc2ccccc2C1C(=O)NCCCN1CCC2(CCc3ccccc32)CC1 (centres undefined)', 'Nociceptin receptor (Homo sapiens, UniProt P41146)', '<', 6.00);
